# experiment: physchem
# test_parameters: water
Where a name gives a salt, the structure may show the parent alone.
readout_kind: solubility

Measured solubility of CCCCN1CCCCC1C(=O)Nc1c(C)cccc1C (stereo not shown) [BUP, bupivacaine hydrochloride] : ≥ 20 mg/mL

FYI, the data here is from patent US20210322396A1.
